system: rat hepatocytes; test: Hepatocyte assay for determination of metabolic stability; settings: after incubation with rat hepatocytes
As shown below, each of these compounds has a reported Fmax (maximum possible bioavailability after oral administration, well-stirred) value.
Reported Property: Fmax (maximum possible bioavailability after oral administration, well-stirred)

In [3]: df
Out[3]:
                                   compound           system  value_observed
0  O=C(O)[C@H]1[C@H](Cn2nnc3ccccc3c2=O)CC[C@@H]1C(=O)c1ccc(OCC2CCOCC2)cc1 (stereo in doubt)  rat hepatocytes           75.7%
1  O=C(O)[C@@H]1[C@@H](Cn2nnc3ccc(C(F)(F)F)cc3c2=O)CC[C@H]1C(=O)c1ccc(OCCC2CCOCC2)cc1 (racemic)  rat hepatocytes           92.9%
2  O=C(O)[C@@H]1[C@@H](Cn2nnc3ccc(C(F)(F)F)cc3c2=O)CC[C@H]1C(=O)c1ccc(SCC2CCOCC2)cc1 (racemic)  rat hepatocytes           96.1%

###

As shown below, each of these compounds has a reported pIC50 value.
Molecular target: MMP-2 (Homo sapiens)
Sequence (P08253 110-660): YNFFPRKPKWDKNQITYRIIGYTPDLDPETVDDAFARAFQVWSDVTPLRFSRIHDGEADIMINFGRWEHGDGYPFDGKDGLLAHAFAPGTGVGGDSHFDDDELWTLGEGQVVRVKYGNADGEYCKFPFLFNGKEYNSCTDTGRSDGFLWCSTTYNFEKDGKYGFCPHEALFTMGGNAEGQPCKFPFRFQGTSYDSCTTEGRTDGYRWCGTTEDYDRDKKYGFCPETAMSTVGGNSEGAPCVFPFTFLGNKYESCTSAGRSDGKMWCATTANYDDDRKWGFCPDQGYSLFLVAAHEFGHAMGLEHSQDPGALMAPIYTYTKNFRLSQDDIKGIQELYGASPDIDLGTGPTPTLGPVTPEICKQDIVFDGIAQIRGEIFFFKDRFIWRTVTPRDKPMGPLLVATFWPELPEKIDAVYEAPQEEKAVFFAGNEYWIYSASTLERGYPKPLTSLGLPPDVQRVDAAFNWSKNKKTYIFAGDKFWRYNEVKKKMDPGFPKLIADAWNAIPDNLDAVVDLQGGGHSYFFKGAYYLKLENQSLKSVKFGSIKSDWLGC
pIC50: −log10 of the molar value.
Reported Property: pIC50

>>> df
                                   compound  reported_property  value_observed
0  O=C(O)[C@H]1[C@H](Cn2nnc3ccc(C(F)(F)F)cc3c2=O)CC[C@@H]1C(=O)c1ccc(OCCC2CCOCC2)cc1 (stereo in doubt)              pIC50            6.66
1  O=C(O)[C@@H]1[C@@H](Cn2nnc3ccc(C(F)(F)F)cc3c2=O)CC[C@H]1C(=O)c1ccc(SCC2CCOCC2)cc1 (single isomer, unassigned)              pIC50            6.48
2  O=C(O)[C@H]1[C@H](Cn2nnc3ccc(C(F)(F)F)cc3c2=O)CC[C@@H]1C(=O)c1ccc(OCC2CCOCC2)cc1 (racemic)              pIC50            6.42

###

Please consider the recorded IC50 for mouse MMP-12 (Mus musculus) in what follows.
Reported Property: IC50 (nM)

Compound	Value Observed
O=C(O)[C@H]1[C@H](Cn2nnc3ccccc3c2=O)CC[C@@H]1C(=O)c1ccc(OCC2CCOCC2)cc1 (stereo in doubt) [Example 1]	3.3
O=C(O)[C@H]1[C@H](Cn2nnc3ccc(C(F)(F)F)cc3c2=O)CC[C@@H]1C(=O)c1ccc(OCCC2CCOCC2)cc1 (stereo in doubt) [Example 10]	2.8
O=C(O)[C@@H]1[C@@H](Cn2nnc3ccccc3c2=O)CC[C@H]1C(=O)c1ccc(OCC2CCOCC2)cc1 (stereo in doubt) [Example 2]	0.85
O=C(O)[C@@H]1[C@@H](Cn2nnc3ccc(C(F)(F)F)cc3c2=O)CC[C@H]1C(=O)c1ccc(OCCC2CCOCC2)cc1 (single isomer, unassigned) [Example 11]	9.4
